- test name: Effect of different intervals between administration and a meal on pharmacokinetic parameters (three-period crossover, single oral dose)
- Assay type: in vivo, human
- test parameters: male, human, plasma, po, 7.5 mg, single oral 7.5 mg; Group A, without a breakfast after administration; N = 15; read-out: t1/2 Mean SD (converted)
parameter: half-life (h)
Respond numerically; units are h and should not be typed.

In: Would you kindly share the measured half-life for CC1=NN(c2ccc3c(c2)CCCC3)C(=O)/C1=N\Nc1cccc(-c2ccc(C(=O)O)o2)c1O [compound represented by Formula I] ?
Out: 29.3

* * *

- test name: Effect of different intervals between administration and a meal on pharmacokinetic parameters (three-period crossover, single oral dose)
- Format: in vivo, human
- test parameters: male, human, plasma, po, 7.5 mg, single oral 7.5 mg; Group A, without a breakfast after administration; N = 15; read-out: MRT Geomean (% CVb)
parameter: MRT (h)
Write down the numeric answer in h and omit the unit.

In: Fill in: MRT of "CC1=NN(c2ccc3c(c2)CCCC3)C(=O)/C1=N\Nc1cccc(-c2ccc(C(=O)O)o2)c1O" is ___
Out: 32.1

* * *

- test name: Effect of different intervals between administration and a meal on pharmacokinetic parameters (three-period crossover, single oral dose)
- Assay type: in vivo, human
- test parameters: male, human, plasma, po, 7.5 mg, single oral 7.5 mg; Group B, meal 1 h after administration; n 14; mixed-effects ANOVA; read-out: Cmax GeoLSM (geometric least squares mean)
parameter: Cmax (ng/mL)
Report only the number, with the unit ng/mL understood.

In: Any idea what Cmax was measured for "CC1=NN(c2ccc3c(c2)CCCC3)C(=O)/C1=N\Nc1cccc(-c2ccc(C(=O)O)o2)c1O" ?
Out: 15.5

* * *

- test name: Effect of different intervals between administration and a meal on pharmacokinetic parameters (three-period crossover, single oral dose)
- Assay type: in vivo, human
- test parameters: male, human, plasma, po, 7.5 mg, single oral 7.5 mg; Group C, high-fat meal 2 h after administration; N = 14; read-out: AUC0-t Geomean (% CVb)
parameter: AUC(0-t) (ng·h/mL)
Please reply with the bare figure in ng·h/mL and do not write the unit itself.

In: Would you mind telling me what AUC(0-t) value was observed for "CC1=NN(c2ccc3c(c2)CCCC3)C(=O)/C1=N\Nc1cccc(-c2ccc(C(=O)O)o2)c1O" ?
Out: 303

* * *

- test name: Effect of different intervals between administration and a meal on pharmacokinetic parameters (three-period crossover, single oral dose)
- Type: in vivo, human
- test parameters: male, human, plasma, po, 7.5 mg, single oral 7.5 mg; Group A, without a breakfast after administration; N = 15; read-out: Tmax Median
parameter: Tmax (h)
Number in h, nothing else.

In: Reported Tmax, molecule CC1=NN(c2ccc3c(c2)CCCC3)C(=O)/C1=N\Nc1cccc(-c2ccc(C(=O)O)o2)c1O [compound represented by Formula I] : ____
Out: 7

* * *

- test name: Effect of different intervals between administration and a meal on pharmacokinetic parameters (three-period crossover, single oral dose)
- Type: in vivo, human
- test parameters: male, human, plasma, po, 7.5 mg, single oral 7.5 mg; Group B, high-fat meal 1 h after administration; N = 14; read-out: MRT Geomean (% CVb)
- Description: Embodiment 1: Study on an effect of different intervals between the administration and a meal on pharmacokinetic parameters of a compound represented by Formula I […] The high-fat meal: calories: 800 to 1,000 kcal, composed of 150 kcal of protein, 250 kcal of carbohydrates and 500 to 600 kcal of fats, wherein about 50% of the calories come from the fats. […] An effect of food on the medicine was analyzed by sampling blood at fixed time points before and after administration and measuring vital signs. […]
parameter: MRT (h)
Give your result in h as a bare value.

In: What does the data say about its MRT? Entry: "CC1=NN(c2ccc3c(c2)CCCC3)C(=O)/C1=N\Nc1cccc(-c2ccc(C(=O)O)o2)c1O"
Out: 17.4
